Data origin: the supplement of paper PMC10567573

B1: SPSB4 (parent)
chain: LDMDEGTLSFIVDGQYLGVAFRGL

# Variants of: B1
# test_description: protein stability index of a GFP-peptide fusion (GPS, HEK-293T) (PSI 1-6); higher = more stable;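 also: lentivirally expressed fusions sorted by FACS into six bins by GFP to DsRed ratio, PSI derived from sequencing read proportions per bin multiplied by bin number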
# conditions_used: c terminus: a fixed tail appended
measurement_label: protein stability index

* F21T | 2.04
* Q15H | 3.32
* D13F | 3.41
* D4I | 3.21
* V12Y | 2.36
* A20V | 3.1
* V19G | 2.18
* E5R | 1.9
* L24G | 1.69
* I11G | 2.45
* E5Y | 2.27
* R22K | 2.01
* A20D | 1.63
* R22L | 1.81
* G18K | 1.8
* G6F | 2.25
* S9H | 2.95
* Y16L | 2.52
* G18L | 2.31
* F21E | 1.96
* V12G | 1.94
* R22S | 2.46
* V12A | 1.96
* L17V | 3.15
* M3A | 2.05
* D2Y | 2.74
* G6R | 2.28
* T7I | 2.18
* A20Q | 1.86
* L17S | 1.86
* L1A | 1.83
* Q15S | 2.35
* G6N | 3.5
* L8R | 2.11
* I11S | 2.63
* D13H | 2.94
* Y16I | 3.04
* E5H | 3.53
* L1V | 2.51
* M3R | 2.68
* D13Y | 3.11
* G18F | 2.44
* D13V | 2.9
* D4K | 2.15
* G6P | 1.72
* F21Y | 2.27
* V12L | 1.26
* L24I | 3.11
* T7H | 1.94
* F21R | 1.65
* F21P | 1.89
* M3D | 1.59
* M3S | 1.77
* I11R | 2.4
* T7Y | 2.04
* A20G | 2.38
* G14D | 2.32
* G23P | 2.1
* I11M | 2.28
* F21Q | 1.98
* L17K | 1.87
* M3C | 2.17
* A20M | 2.48
* G23S | 3.28
* F21L | 1.8
* L8C | 3.35
* V12N | 1.75
* S9P | 1.74
* L17H | 1.86
* G14W | 2.71
* G23C | 1.86
